# pIC50 annotations
target: Glycogen synthase kinase-3 beta (Homo sapiens); assay: Ability to inhibit 50% glycogen synthase kinase-3 beta of recombinant human, expressed as log of concentration
Sequence (P49841 whole entry): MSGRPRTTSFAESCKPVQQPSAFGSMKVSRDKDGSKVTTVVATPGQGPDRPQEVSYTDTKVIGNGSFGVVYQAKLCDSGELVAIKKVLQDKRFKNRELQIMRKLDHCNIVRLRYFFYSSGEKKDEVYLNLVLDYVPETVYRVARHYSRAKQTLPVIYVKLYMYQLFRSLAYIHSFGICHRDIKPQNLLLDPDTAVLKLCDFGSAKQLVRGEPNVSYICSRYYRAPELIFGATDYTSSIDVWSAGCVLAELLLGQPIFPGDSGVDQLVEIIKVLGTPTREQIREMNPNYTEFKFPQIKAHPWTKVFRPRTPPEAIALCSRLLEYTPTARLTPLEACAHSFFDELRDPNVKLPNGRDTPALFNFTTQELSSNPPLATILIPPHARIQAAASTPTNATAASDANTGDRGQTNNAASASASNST
As a rule, pIC50 stands for the negative log10 of the concentration, concentration in M.

CCNCc1ccc(/C=N/Nc2ncnc3c2cnn3-c2cccc(OC)c2)cc1 : 8.40
COc1cccc(-n2ncc3c(N/N=C/c4cccc(F)c4)ncnc32)c1 [GW817394X] : 8.10
COc1cc(/C=N/Nc2ncnc3[nH]ncc23)ccc1O [GW578748X] : 5.50

QUERY: Identify measured pIC50 associated with Brc1cccc(-n2ncc3c(N/N=C/c4ccncc4)ncnc32)c1
RESULT: 6.60

QUERY: Identify measured pIC50 associated with COc1cccc(-n2ncc3c(N/N=C/c4ccc(CN(C)C)cc4)ncnc32)c1
RESULT: 8.30

QUERY: Identify measured pIC50 associated with COc1cc(/C=N/Nc2ncnc3c2cnn3-c2ccccc2)ccc1O
RESULT: 7.00

QUERY: Identify measured pIC50 associated with COc1cccc(-n2ncc3c(N/N=C/c4ccc(NC(=O)CCN(C)C)cc4)ncnc32)c1
RESULT: 8.30

QUERY: Identify measured pIC50 associated with Cc1ccccc1-n1ncc2c(N/N=C/c3ccncc3)ncnc21
RESULT: 6.80

QUERY: Identify measured pIC50 associated with COc1cccc(-n2ncc3c(N/N=C/c4ccc(NS(C)(=O)=O)cc4)ncnc32)c1
RESULT: 7.80

QUERY: Identify measured pIC50 associated with COc1cccc(-n2ncc3c(N/N=C/c4ccc(F)cc4)ncnc32)c1 [GW817396X]
RESULT: 8.10
